Hello, the source for this data is patent US12209135B2, in case you need it.

- TARGET: T1, rhesus CD45 ectodomain (Macaca mulatta, UniProt A0A1D5R142)
- T1 construct: purified human, rhesus or cynomolgus CD45 ectodomain
- T1 sequence (A0A1D5R142 26-581): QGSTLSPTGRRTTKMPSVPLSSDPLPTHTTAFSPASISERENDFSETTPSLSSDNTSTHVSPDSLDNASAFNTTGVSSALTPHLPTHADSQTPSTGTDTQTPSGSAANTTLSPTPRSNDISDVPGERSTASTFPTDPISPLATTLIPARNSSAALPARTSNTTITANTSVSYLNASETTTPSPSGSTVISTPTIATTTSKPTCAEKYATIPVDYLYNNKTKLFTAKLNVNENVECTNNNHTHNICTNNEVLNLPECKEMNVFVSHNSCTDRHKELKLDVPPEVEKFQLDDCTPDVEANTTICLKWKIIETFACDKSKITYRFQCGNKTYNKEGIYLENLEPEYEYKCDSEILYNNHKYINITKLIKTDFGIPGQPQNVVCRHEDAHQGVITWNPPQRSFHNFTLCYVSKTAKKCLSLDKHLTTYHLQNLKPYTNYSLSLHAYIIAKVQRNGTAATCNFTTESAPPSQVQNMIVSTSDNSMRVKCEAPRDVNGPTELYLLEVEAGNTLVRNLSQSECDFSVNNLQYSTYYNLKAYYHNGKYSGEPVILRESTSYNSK
- RUN_DESCRIPTION: Biolayer interferometry (BLI, Octet) binding of immobilized IgG to purified CD45 ectodomain
- CONDITION_DESCRIPTION: Table 2, Rhesus CD45
READOUT_TYPE: Kdis (s⁻¹)
Reply with just the number (in s⁻¹).

[in] For the molecule Ab4: affinity matured human anti-CD45 IgG derived from Ab1; VH SEQ ID NO:31, VL SEQ ID NO:35 (antibody, V domains shown) VH: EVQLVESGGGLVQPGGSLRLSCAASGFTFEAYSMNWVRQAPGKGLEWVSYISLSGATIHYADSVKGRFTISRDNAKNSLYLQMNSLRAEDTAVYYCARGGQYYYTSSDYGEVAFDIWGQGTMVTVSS VL: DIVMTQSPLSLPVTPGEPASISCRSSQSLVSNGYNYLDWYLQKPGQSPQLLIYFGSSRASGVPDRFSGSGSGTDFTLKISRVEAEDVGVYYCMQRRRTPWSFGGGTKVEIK , give its reported Kdis.
[out] 0.000102
